Kindly state protein stability index for each of the entries shown.
B1: KLHL13 (parent)
chain: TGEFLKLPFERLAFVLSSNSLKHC

Variants of: B1
Assay: protein stability index of a GFP-peptide fusion (GPS, HEK-293T) (PSI 1-6); higher = more stable;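 also: lentivirally expressed fusions sorted by FACS into six bins by GFP to DsRed ratio, PSI derived from sequencing read proportions per bin multiplied by bin number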
Conditions: c terminus: a fixed tail appended
Numbers only.

# sequenceRecord, protein stability index
records = [
    ("TGEFLKLPFERLAFVLSSNSLKSC", 4.04),
    ("TGEFLKLPFERLAFVLSSWSLKHC", 3.01),
]

Provide the reported protein stability index of each entry below, same order.
1. TGEFLLLPFERLAFVLSSNSLKHC
2. TGEFLKLPFYRLAFVLSSNSLKHC
3. TGEFLCLPFERLAFVLSSNSLKHC
4. TGEALKLPFERLAFVLSSNSLKHC

3.24
3.3
2.54
2.92

Provide the reported protein stability index of each entry below, same order.
1. TGHFLKLPFERLAFVLSSNSLKHC
2. TGEFLKLPSERLAFVLSSNSLKHC
3. TGEFLKLPFEKLAFVLSSNSLKHC
4. TGEFLKLPFERLAFVLKSNSLKHC
5. TGEFLKLPFERLAFVLQSNSLKHC

1. 2.67
2. 2.07
3. 3.47
4. 1.05
5. 1.72

This collection of values is drawn from the supplement of paper PMC10567573.
